- test name: Reversal of multidrug resistance in human AD10 cells assessed as increase in calcein accumulation at 25 ug/ml relative to control
- Assay type: functional

- molecule: "COc1cc(C(c2cc(OC)c3c(c2)OCO3)[C@@H]2COC(=O)[C@@H]2CO)cc(OC)c1OC (stereo partly drawn)"
  display unit: "%"
  Activity: 125
- molecule: "COc1cc(C(c2cc(OC)c(OC)c(OC)c2)[C@@H]2COC(=O)[C@H]2C)cc(OC)c1OC [PEPEROMIN C]"
  display unit: "%"
  Activity: 138
- molecule: "COc1cc(C(c2cc(OC)c(OC)c(OC)c2)[C@@H]2COC(=O)[C@H]2C)cc(OC)c1O (stereo partly drawn)"
  display unit: "%"
  Activity: 103
- molecule: "COc1cc(C(c2cc(OC)c3c(c2)OCO3)[C@@H]2COC(=O)[C@@H]2COC(C)=O)cc(OC)c1O (single isomer, unassigned; (-))"
  display unit: "%"
  Activity: 104
- molecule: "COc1cc(C(c2cc(OC)c(OC)c(OC)c2)[C@@H]2COC(=O)[C@H]2C)cc(O)c1OC (stereo partly drawn)"
  display unit: "%"
  Activity: 105
- molecule: "C=C1C(=O)OC[C@H]1C(c1cc(OC)c2c(c1)OCO2)c1cc(OC)c2c(c1)OCO2 [PEPEROMIN E]"
  display unit: "%"
  Activity: 132
- molecule: "COc1cc(C(c2cc(OC)c3c(c2)OCO3)[C@@H]2COC(=O)[C@@H]2CO)cc2c1OCO2"
  display unit: "%"
  Activity: 105
- molecule: "C=C1C(=O)OC[C@H]1C(c1cc(OC)c(O)c(OC)c1)c1cc(OC)c2c(c1)OCO2 (stereo partly drawn)"
  display unit: "%"
  Activity: 125

###

- test name: Reversal of multidrug resistance in human AD10 cells assessed as increase in calcein accumulation at 0.25 ug/ml relative to control
- Assay type: functional
assay endpoint: Activity (%)

- compound: "C=C1C(=O)OC[C@H]1C(c1cc(OC)c(O)c(OC)c1)c1cc(OC)c2c(c1)OCO2 (stereo partly drawn)"
  display unit: "%"
  numeric readout: 104
- compound: "COc1cc(C(c2cc(OC)c(OC)c(OC)c2)[C@@H]2COC(=O)[C@H]2C)cc(O)c1OC (stereo partly drawn)"
  display unit: "%"
  numeric readout: 101
- compound: "COc1cc(C(c2cc(OC)c3c(c2)OCO3)[C@@H]2COC(=O)[C@@H]2CO)cc(OC)c1OC (stereo partly drawn)"
  display unit: "%"
  numeric readout: 105
- compound: "COc1cc(C(c2cc(OC)c3c(c2)OCO3)[C@@H]2COC(=O)[C@H]2C)cc(OC)c1O (stereo partly drawn)"
  display unit: "%"
  numeric readout: 99
- compound: "COc1cc(C(c2cc(OC)c(OC)c(OC)c2)[C@@H]2COC(=O)[C@H]2C)cc(OC)c1OC"
  display unit: "%"
  numeric readout: 109
- compound: "COc1cc(C(c2cc(OC)c3c(c2)OCO3)[C@@H]2CO[C@@H](O)[C@@H]2C)cc2c1OCO2"
  display unit: "%"
  numeric readout: 99
- compound: "COc1ccc(CCN(C)CCCC(C#N)(c2ccc(OC)c(OC)c2)C(C)C)cc1OC (stereo not drawn)"
  display unit: "%"
  numeric readout: 106
- compound: "COc1cc(C(c2cc(OC)c3c(c2)OCO3)[C@@H]2COC(=O)[C@@H]2CO)cc2c1OCO2"
  display unit: "%"
  numeric readout: 98
- compound: "COc1cc(C(c2cc(OC)c3c(c2)OCO3)[C@@H]2COC(=O)[C@@H]2COC(C)=O)cc(OC)c1O (single isomer, unassigned; (-))"
  display unit: "%"
  numeric readout: 108
- compound: "C=C1C(=O)OC[C@H]1C(c1cc(OC)c2c(c1)OCO2)c1cc(OC)c2c(c1)OCO2"
  display unit: "%"
  numeric readout: 102
- compound: "COc1cc(C(c2cc(OC)c3c(c2)OCO3)[C@@H]2COC(=O)[C@H]2C)cc2c1OCO2"
  display unit: "%"
  numeric readout: 85
- compound: "COc1cc([C@@H](c2cc(OC)c3c(c2)OCO3)[C@@H]2COC(=O)[C@H]2C)cc(OC)c1OC"
  display unit: "%"
  numeric readout: 111
- compound: "COc1cc(C(c2cc(OC)c(OC)c(OC)c2)[C@@H]2COC(=O)[C@H]2C)cc(OC)c1O (stereo partly drawn)"
  display unit: "%"
  numeric readout: 96

###

Reported IC50 by item:
- System: HepG2
- test name: Cytotoxicity against human HepG2 cells
- Type: functional, cell-based
assay endpoint: IC50 (µM)

- compound: "COc1cc(C(c2cc(OC)c(OC)c(OC)c2)[C@@H]2COC(=O)[C@H]2C)cc(OC)c1O (some centres undefined)"
  readout relation: "="
  numeric readout: 163
- compound: "COc1cc(C(c2cc(OC)c(OC)c(OC)c2)[C@@H]2COC(=O)[C@H]2C)cc(OC)c1OC [PEPEROMIN C]"
  readout relation: "="
  numeric readout: 189
- compound: "COc1cc(C(c2cc(OC)c3c(c2)OCO3)[C@@H]2COC(=O)[C@@H]2COC(C)=O)cc(OC)c1O (single isomer, unassigned; (-))"
  readout relation: "="
  numeric readout: 75.9
- compound: "COc1cc(C(c2cc(OC)c3c(c2)OCO3)[C@@H]2COC(=O)[C@H]2C)cc(OC)c1O (some centres undefined)"
  readout relation: "="
  numeric readout: 159
- compound: "COc1cc(C(c2cc(OC)c3c(c2)OCO3)[C@@H]2COC(=O)[C@H]2C)cc2c1OCO2 [PEPEROMIN A]"
  readout relation: ">"
  numeric readout: 239
- compound: "COc1cc([C@@H](c2cc(OC)c3c(c2)OCO3)[C@@H]2COC(=O)[C@H]2C)cc(OC)c1OC [PEPEROMIN B]"
  readout relation: "="
  numeric readout: 119
- compound: "COc1cc(C(c2cc(OC)c3c(c2)OCO3)[C@@H]2COC(=O)[C@@H]2CO)cc2c1OCO2"
  readout relation: "="
  numeric readout: 97.8
- compound: "C=C1C(=O)OC[C@H]1C(c1cc(OC)c2c(c1)OCO2)c1cc(OC)c2c(c1)OCO2 [PEPEROMIN E]"
  readout relation: "="
  numeric readout: 12.1
- compound: "COc1cccc2c1C(=O)c1c(O)c3c(c(O)c1C2=O)C[C@@](O)(C(=O)CO)C[C@@H]3O[C@H]1C[C@H](N)[C@H](O)[C@H](C)O1 (stereo in doubt) [DOXORUBICIN]"
  readout relation: "="
  numeric readout: 2.21

###

Reported Activity by item:
- test name: Reversal of multidrug resistance in human AD10 cells assessed as increase in calcein accumulation at 0.25 ug/ml relative to verapamil
- Format: functional

- molecule: "C=C1C(=O)OC[C@H]1C(c1cc(OC)c2c(c1)OCO2)c1cc(OC)c2c(c1)OCO2"
  Activity, %: 96
- molecule: "COc1cc(C(c2cc(OC)c(OC)c(OC)c2)[C@@H]2COC(=O)[C@H]2C)cc(OC)c1O (stereo partly drawn)"
  Activity, %: 90
- molecule: "COc1cc(C(c2cc(OC)c3c(c2)OCO3)[C@@H]2COC(=O)[C@H]2C)cc(OC)c1O (stereo partly drawn)"
  Activity, %: 93
- molecule: "COc1cc(C(c2cc(OC)c3c(c2)OCO3)[C@@H]2COC(=O)[C@H]2C)cc2c1OCO2"
  Activity, %: 90
- molecule: "C=C1C(=O)OC[C@H]1C(c1cc(OC)c(O)c(OC)c1)c1cc(OC)c2c(c1)OCO2 (stereo partly drawn)"
  Activity, %: 98
- molecule: "COc1cc(C(c2cc(OC)c(OC)c(OC)c2)[C@@H]2COC(=O)[C@H]2C)cc(OC)c1OC"
  Activity, %: 130
- molecule: "COc1cc(C(c2cc(OC)c3c(c2)OCO3)[C@@H]2COC(=O)[C@@H]2CO)cc(OC)c1OC (stereo partly drawn)"
  Activity, %: 98
- molecule: "COc1cc(C(c2cc(OC)c(OC)c(OC)c2)[C@@H]2COC(=O)[C@H]2C)cc(O)c1OC (stereo partly drawn)"
  Activity, %: 95

###

- test name: Reversal of multidrug resistance in human AD10 cells assessed as increase in calcein accumulation at 0.25 ug/ml relative to verapamil
- Format: functional
assay endpoint: Activity (%)

- compound: "COc1cc(C(c2cc(OC)c3c(c2)OCO3)[C@@H]2CO[C@@H](O)[C@@H]2C)cc2c1OCO2"
  assay endpoint: "Activity"
  numeric readout: 93
- compound: "COc1cc(C(c2cc(OC)c3c(c2)OCO3)[C@@H]2COC(=O)[C@@H]2COC(C)=O)cc(OC)c1O (single isomer, unassigned; (-))"
  assay endpoint: "Activity"
  numeric readout: 101
- compound: "COc1cc([C@@H](c2cc(OC)c3c(c2)OCO3)[C@@H]2COC(=O)[C@H]2C)cc(OC)c1OC [PEPEROMIN B]"
  assay endpoint: "Activity"
  numeric readout: 132
- compound: "COc1cc(C(c2cc(OC)c3c(c2)OCO3)[C@@H]2COC(=O)[C@@H]2CO)cc2c1OCO2"
  assay endpoint: "Activity"
  numeric readout: 92
